- TESTED TARGET: human OX2 receptor (Homo sapiens)
- Construct: expressed in transfected cells
- PROTOCOL NOTES: Measurement of orexin type 2 receptor agonist activity (Fluo-4 calcium fluorescence, FDSS)
- Type: cell-based
- CONDITION: compound at 3 μM; CHO cells forcibly expressing human OX2 receptor; DMSO = 0%, orexin A (human) 10 nM = 100%
PARAMETER: OX2R agonist activity (3 μM, %)
Respond numerically; units are % and should not be typed.

Solved entries:
// sample CO[C@@H]1CN(C(=O)c2c(C)cccc2C)C[C@H]1Oc1cccc(NS(=O)(=O)c2sccc2Cl)c1F (relative stereo) , its OX2R agonist activity (3 μM, %) was 52

// sample COc1ccccc1S(=O)(=O)Nc1cccc(O[C@@H]2CN(C(=O)c3cc(C)ccc3C)C[C@H]2OC)c1 (relative stereo) [Example 56] , its OX2R agonist activity (3 μM, %) was 101

// sample CO[C@@H]1CN(C(=O)c2cc(C)ccc2C)C[C@H]1Oc1cccc(NS(=O)(=O)c2ccccc2)c1 (relative stereo) , its OX2R agonist activity (3 μM, %) was 78

// sample COc1ccc(N2CCCC3(CCCCO3)C2)cc1S(=O)(=O)Nc1cccc(O[C@H]2CCN(C(=O)c3c(C)cccc3C)C2)c1 (stereo partly shown) , its OX2R agonist activity (3 μM, %) was 97

// sample `Cc1cccc(C)c1C(=O)N1CC[C@H](Oc2cccc(NS(=O)(=O)c3cccc(-c4cccc(C(=O)N(C)C)c4)c3)c2)C1` , its OX2R agonist activity (3 μM, %) was 94

// sample COc1ccccc1S(=O)(=O)Nc1cccc(O[C@@H]2CN(C(=O)c3cc(C)ccc3C)C[C@H]2OC)c1 [Example 63] , its OX2R agonist activity (3 μM, %) was 112

***
// sample `COc1ccc(-c2cccc(C(=O)N(C)C)c2)cc1S(=O)(=O)Nc1cc(O[C@H]2CCN(C(=O)c3c(C)cccc3C)C2)ccc1F` , its OX2R agonist activity (3 μM, %) was 85

// sample COc1ccc(-c2cccc(C(=O)N(C)C)c2)cc1S(=O)(=O)Nc1cc(OC2CCN(C(=O)c3cccc(C)c3)C2)ccn1 (stereo not shown) , its OX2R agonist activity (3 μM, %) was 64

// sample COc1ccccc1S(=O)(=O)Nc1cccc(O[C@@H]2CN(C(=O)c3cc(C)ccc3C)C[C@H]2F)c1 (relative stereo) , its OX2R agonist activity (3 μM, %) was 77

// sample `CCCS(=O)(=O)Nc1cccc(O[C@H]2CCN(C(=O)c3c(C)cccc3C)C2)c1` , its OX2R agonist activity (3 μM, %) was 23

// sample `COc1ccccc1S(=O)(=O)Nc1cccc(O[C@@H]2CN(C(=O)c3c(C)cccc3F)C[C@H]2OC)c1` , its OX2R agonist activity (3 μM, %) was 80

// sample COc1ccc(N2CCCC(C(=O)N3CCCC3)C2)cc1S(=O)(=O)Nc1cccc(O[C@H]2CCN(C(=O)c3c(C)cccc3C)C2)c1 (stereo partly shown) , its OX2R agonist activity (3 μM, %) was 97

// sample `COc1ccc(-c2cccc(C(=O)N(C)C)c2)cc1S(=O)(=O)Nc1cccc(O[C@H]2CCN(C(=O)c3cnn(C)c3C(F)(F)F)C2)c1` , its OX2R agonist activity (3 μM, %) was 98

* * *

- TESTED TARGET: human OX2 receptor (Homo sapiens, UniProt O43614)
- Construct: expressed in transfected cells
- Sequence (O43614 whole entry): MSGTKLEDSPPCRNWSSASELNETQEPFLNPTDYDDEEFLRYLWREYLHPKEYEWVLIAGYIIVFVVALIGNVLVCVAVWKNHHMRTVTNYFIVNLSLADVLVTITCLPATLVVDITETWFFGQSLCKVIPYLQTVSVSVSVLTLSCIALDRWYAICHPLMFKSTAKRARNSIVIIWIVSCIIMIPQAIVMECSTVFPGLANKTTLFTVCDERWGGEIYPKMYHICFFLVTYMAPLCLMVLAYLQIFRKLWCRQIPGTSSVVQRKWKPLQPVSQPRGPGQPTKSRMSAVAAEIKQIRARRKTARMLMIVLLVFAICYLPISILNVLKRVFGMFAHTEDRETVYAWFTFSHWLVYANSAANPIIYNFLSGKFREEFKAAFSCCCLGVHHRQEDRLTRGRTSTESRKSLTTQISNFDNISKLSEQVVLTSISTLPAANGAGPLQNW
- PROTOCOL NOTES: Measurement of orexin type 2 receptor agonist activity (Fluo-4 calcium fluorescence, FDSS)
- Assay type: cell-based
- CONDITION: compound at 3 μM; CHO cells forcibly expressing human OX2 receptor; DMSO = 0%, orexin A (human) 10 nM = 100%
PARAMETER: OX2R agonist activity (3 μM, %)
Respond numerically; units are % and should not be typed.

Solved entries:
// sample `COc1ccc(N2CCCCC2=O)cc1S(=O)(=O)Nc1cccc(O[C@H]2CCN(C(=O)c3c(C)cccc3C)C2)c1` , its OX2R agonist activity (3 μM, %) was 89

// sample CC[C@@H]1CN(C(=O)c2cc(C)ccc2C)C[C@H]1Oc1cccc(NS(=O)(=O)c2ccccc2OC)c1 (relative stereo) , its OX2R agonist activity (3 μM, %) was 80

// sample COc1ccccc1S(=O)(=O)Nc1cccc(C[C@@H]2CN(C(=O)c3cc(C)ccc3C)C[C@H]2OC)c1 (relative stereo) , its OX2R agonist activity (3 μM, %) was 57

// sample COc1ccccc1S(=O)(=O)Nc1cncc(O[C@@H]2CN(C(=O)c3cc(C)ccc3C)C[C@H]2OC)c1 (relative stereo) , its OX2R agonist activity (3 μM, %) was 104

// sample COc1ccc(-c2cccc(C(=O)N(C)C)c2)cc1S(=O)(=O)Nc1cccc(O[C@H]2CCN(C(=O)C3CCCCO3)C2)c1 (stereo partly shown) , its OX2R agonist activity (3 μM, %) was 95

***
// sample `COc1ccccc1S(=O)(=O)Nc1cccc(O[C@H]2CCN(C(=O)c3cc(C)ccc3C)C2)c1` , its OX2R agonist activity (3 μM, %) was 69

// sample COc1ccccc1S(=O)(=O)Nc1cccc(O[C@@H]2CN(C(=O)c3cc(C)ccc3C)C[C@H]2OC)c1F (relative stereo) , its OX2R agonist activity (3 μM, %) was 103

// sample `COc1ccc(-c2cccc(C(=O)N(C)C)c2)cc1S(=O)(=O)Nc1cccc(O[C@H]2CCN(C(=O)c3cc(C)ccc3C)C2)c1` , its OX2R agonist activity (3 μM, %) was 92

// sample `COc1ccc(-c2cccc(C(=O)N(C)C)c2)cc1S(=O)(=O)Nc1cccc(O[C@H]2CCN(C(=O)c3cccc(C)c3)C2)c1` , its OX2R agonist activity (3 μM, %) was 101

// sample CCCS(=O)(=O)Nc1cccc(O[C@@H]2CN(C(=O)c3cc(C)ccc3C)C[C@H]2OC)c1 (relative stereo) [Example 66] , its OX2R agonist activity (3 μM, %) was 76

* * *

- TESTED TARGET: human OX2 receptor (Homo sapiens, UniProt O43614)
- Construct: expressed in transfected cells
- PROTOCOL NOTES: Measurement of orexin type 2 receptor agonist activity (Fluo-4 calcium fluorescence, FDSS)
- Assay type: cell-based
- CONDITION: compound at 3 μM; CHO cells forcibly expressing human OX2 receptor; DMSO = 0%, orexin A (human) 10 nM = 100%
# OX2R agonist activity (3 μM, %) annotations
Respond numerically; units are % and should not be typed.

Solved entries:
// sample COc1ccccc1S(=O)(=O)Nc1ccc(F)c(O[C@@H]2CN(C(=O)c3cc(C)ccc3C)C[C@H]2OC)c1 (relative stereo) [Example 86] , its OX2R agonist activity (3 μM, %) was 80

// sample COc1ccc(-c2cccc(C(=O)N(C)C)c2)cc1S(=O)(=O)Nc1cccc(N(C)C2CCN(C(=O)c3cc(C)ccc3C)C2)c1 (stereo not drawn) [Example 58] , its OX2R agonist activity (3 μM, %) was 104

***
// sample COc1ccccc1S(=O)(=O)Nc1cc(F)cc(O[C@@H]2CN(C(=O)c3cc(C)ccc3C)C[C@H]2OC)c1 (relative stereo) [Example 100] , its OX2R agonist activity (3 μM, %) was 102

// sample COc1ccccc1S(=O)(=O)Nc1cccc(O[C@@H]2CN(C(=O)c3cc(C)ccc3C)C[C@H]2C)c1 (relative stereo) [Example 92] , its OX2R agonist activity (3 μM, %) was 102

// sample COc1ccc(-c2cccc(C(=O)N(C)C)c2)cc1S(=O)(=O)Nc1cccc(O[C@@H]2CN(C(=O)c3cc(C)ccc3C)C[C@@H]2OC)c1 (relative stereo) [Example 59] , its OX2R agonist activity (3 μM, %) was 103

// sample COc1ccc(-c2cccc(C(=O)N(C)C)c2)cc1S(=O)(=O)Nc1cccc(O[C@H]2CCN(C(=O)c3c(C)cccc3C)C2)c1 [Example 10] , its OX2R agonist activity (3 μM, %) was 106

* * *

- TESTED TARGET: human OX2 receptor (Homo sapiens)
- Construct: expressed in transfected cells
- PROTOCOL NOTES: Measurement of orexin type 2 receptor agonist activity (Fluo-4 calcium fluorescence, FDSS)
- Format: cell-based
- CONDITION: compound at 3 μM; CHO cells forcibly expressing human OX2 receptor; DMSO = 0%, orexin A (human) 10 nM = 100%
# OX2R agonist activity (3 μM, %) annotations
Respond numerically; units are % and should not be typed.

// sample CO[C@@H]1CN(C(=O)c2cc(C)ccc2C)C[C@H]1Oc1cccc(NS(=O)(=O)c2sccc2Cl)c1 [Example 84] , its OX2R agonist activity (3 μM, %) was 96

// sample COc1ccc(-c2cccc(C(=O)N(C)C)c2)cc1S(=O)(=O)Nc1cccc(O[C@@H]2CN(C(=O)c3cc(C)ccc3C)C[C@H]2OC)c1 (relative stereo) [Example 60] , its OX2R agonist activity (3 μM, %) was 105

// sample CO[C@@H]1CN(C(=O)c2cc(C)ccc2C)C[C@H]1Oc1cccc(NS(=O)(=O)c2ccccc2F)c1 [Example 82] , its OX2R agonist activity (3 μM, %) was 101

// sample COc1ccccc1S(=O)(=O)Nc1cccc(O[C@@H]2CN(C(=O)c3c(C)cccc3C)C[C@H]2OC)c1 [Example 74] , its OX2R agonist activity (3 μM, %) was 104

We now examine a further molecule.
// sample COc1ccc(-c2cccc(C(=O)N(C)C)c2)cc1S(=O)(=O)Nc1cccc(O[C@H]2CCN(C(=O)c3cccnc3C(F)(F)F)C2)c1 [Example 23] , its OX2R agonist activity (3 μM, %) was 88
